Tested on: S. Typhi PhoP-promoter GFP reporter, fluorescence, 4 h
Assay: PhoP regulon inhibitor project modified counter assay, GFP fluorescence readout, dose response (AID 1985)
List of IC50 values.

- molecule: "CC(C)(c1ccccc1)c1ccc(OCCCNCCO)cc1"
  IC50: "93.5 µM"
- molecule: "CCn1cc(C(=O)O)c(=O)c2cc3c(cc21)OCO3"
  IC50: "52.1 µM"
- molecule: "CCn1cc(C(=O)O)c(=O)c2cc(F)c(N3CCN(C)CC3)cc21"
  IC50: "0.427 µM"
- molecule: "C#CCOCCOCCOCCNc1nc(N2CCN(C(=O)CCCCCCCCCCNC(=O)[C@H]([C@@H](C)CC)n3cc(CCCCN=C(N)N)nn3)CC2)nc(N2CCN(C(=O)CCCCCCCCCCNC(=O)[C@H](CO)n3cc(CCCCCN)nn3)CC2)n1"
  IC50: "32.8 µM"
- molecule: "COc1cc(/C=N/N=C(N)N)ccc1OCc1ccc(Cl)cc1"
  IC50: "36.7 µM"
- molecule: "CCCCCCCCCn1c2c(c(=N)c3c1CCC3)CCC2"
  IC50: "36.7 µM"
- molecule: "S=C(Nc1ccc(Cl)c(Cl)c1)NC1CCN(Cc2ccccc2)CC1"
  IC50: "38 µM"
- molecule: "O=C(NC(CO)Cc1ccc([N+](=O)[O-])cc1)C(Cl)Cl (stereo not given)"
  IC50: "4.59 µM"
- molecule: "CC(NCC(O)COc1ccc2ccccc2c1)c1ccccc1 (stereo not given)"
  IC50: "132 µM"
- molecule: "CN1CCN(c2c(F)cc3c(=O)c(C(=O)O)cn4c3c2OCN4C)CC1"
  IC50: "< 0.23 µM"
